The origin of these recorded values is patent US8778913B2.

# Subject of test: CrtM (dehydrosqualene synthase) (Staphylococcus aureus)
# Protocol: Recombinant CrtM enzyme inhibition
# Settings: S. aureus enzyme expressed in E. coli
pIC50: −log10 of the molar value.
Measurement type: pIC50

INSERT INTO measurements (compound, subject_of_test, measurement_type, observed) VALUES
  ('O=P([O-])([O-])C(CCCc1cccc(Oc2ccccc2)c1)S(=O)(=O)[O-].[K+].[K+].[K+] (racemic) [Formula III]', 'CrtM (dehydrosqualene synthase) (Staphylococcus aureus)', 'pIC50', 6.22);

----------
# Subject of test: CrtM (dehydrosqualene synthase) (Staphylococcus aureus, UniProt A9JQL9)
# Sequence (A9JQL9 whole entry): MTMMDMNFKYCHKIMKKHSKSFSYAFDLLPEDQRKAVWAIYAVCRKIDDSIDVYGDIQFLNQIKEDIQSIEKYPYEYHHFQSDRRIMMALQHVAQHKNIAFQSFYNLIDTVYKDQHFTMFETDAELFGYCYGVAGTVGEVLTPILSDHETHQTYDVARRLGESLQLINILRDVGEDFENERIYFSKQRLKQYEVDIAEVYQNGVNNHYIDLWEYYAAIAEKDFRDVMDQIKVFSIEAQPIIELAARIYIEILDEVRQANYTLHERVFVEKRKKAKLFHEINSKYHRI
# Protocol: Recombinant CrtM enzyme inhibition
# Settings: corresponding to the IC50
pKi: −log10 of the molar value.
Measurement type: pKi

INSERT INTO measurements (compound, subject_of_test, observed) VALUES
  ('O=P([O-])([O-])C(CCCc1cccc(Oc2ccccc2)c1)S(=O)(=O)[O-].[K+].[K+].[K+] (racemic)', 'CrtM (dehydrosqualene synthase) (Staphylococcus aureus, UniProt A9JQL9)', '~8.82');
